TEST_PROTOCOL: qHTS assay to identify small molecule HDAC inhibitors - cell viability counter screen (AID 1259365); also: % is scaled to controls: 0 for no effect and ±100 for the full control effect; nearly all actives have a fitted effect of over 50% in size
MEASUREMENT_CONDITIONS: HCT-116 viability, CellTiter-Glo ATP luminescence, 2 h; series mostly up to 92.4 µM
Activity calls are given as the source filed them. Calls follow the shape of the dose curve; as a rule, active = well fitted cell-killing curve with a large enough effect in the repeat runs; inconclusive = weak or mixed curves, or effect the other way; inactive = flat fitted curve, though single readings scatter.

SMILES	activity change, negative = cytotoxicity
O=C(COCCOCCOCC(=O)Nc1c(I)cc(I)c(C(=O)O)c1I)Nc1c(I)cc(I)c(C(=O)O)c1I	inactive
NC(=O)C1(N2CCCCC2)CCN(CCCC(=O)c2ccc(F)cc2)CC1	inactive
C[C@@H]1C[C@H]2[C@@H]3C[C@H](F)C4=CC(=O)C=C[C@]4(C)[C@@]3(F)[C@@H](O)C[C@]2(C)[C@@]1(O)C(=O)CO	inactive
Nc1c(NC/C=C\COc2cc(CN3CCCCC3)ccn2)c(=O)c1=O	4.37% [at 19 µM] (inactive)
O=S1(=O)CCCC1	inactive
C=CCCCCCCCCCCC	4.34% [at 8.39 µM] (inactive)
CCC(C)(C)C1CCC(=O)CC1	inactive
C1=C\CC/C=C\CC/1	inactive
CCc1nccnc1C	inactive
CCCCCC(=O)OCC	inactive
CCCCC(=O)N(C)C	inactive
O=c1cc(O)c(Cl)c[nH]1	inactive
CCOC(=O)C(C)(C)C	inactive

----------
TEST_PROTOCOL: A CellTox Green Cytotoxicity Assay to monitor cytotoxicity in HepG2 cells - 40 hour (AID 1224879); also: % is scaled to controls: 0 for no effect and ±100 for the full control effect; nearly all actives have a fitted effect of over 40% in size
MEASUREMENT_CONDITIONS: CellTox Green fluorescence; series mostly up to 76.8 µM
Records with an inconclusive call do not appear. The source made the active and inactive calls. Calls come from the whole dose curve; as a rule, active = well fitted activation curve with a large enough effect in the repeat runs; inconclusive = weak or mixed curves; inactive = flat fitted curve, though single readings scatter.

MOLECULE	cytotoxicity increase
COC(/C=C(\C)CCC=C(C)C)OC	inactive
C=C[Si](C)(C)O[Si](C)(C)C=C	inactive
O=C(O)c1ccccc1C(=O)Nc1ccc(S(=O)(=O)Nc2nccs2)cc1	inactive
CN[C@@H]1[C@@H](O)[C@@H](O[C@@H]2[C@H](O)[C@H](O[C@H]3OC(CN)=CC[C@H]3N)[C@@H](N)C[C@H]2N)OCC1(C)O (stereo partly drawn)	inactive
CCOC(=O)C(C)(C)C	inactive
Cc1ccc(S(=O)(=O)NC(=O)NC2CCCCCCC2)cc1	inactive
C1=CCC(c2ccccc2)CC1 (stereo not drawn)	inactive
COc1cccc2sc(N)nc12	inactive
C=C(C)C(=O)OCCCCCCOC(=O)C(=C)C	inactive
COc1ccc(OC)c(NC(=O)CC(C)=O)c1	inactive
CCCCOC(=O)C(C)OC(=O)CCC (stereo not drawn)	inactive
CCN1CN(CC)CN(CC)C1	inactive
C[C@H](CCC(=O)O)[C@H]1CC[C@H]2[C@@H]3[C@H](O)C[C@@H]4C[C@H](O)CC[C@]4(C)[C@H]3C[C@H](O)[C@]12C	inactive
O=c1[nH]c(=O)c2ccccc2o1	inactive
NC(=O)NC(=O)Cc1ccccc1	inactive
FC(F)(F)c1ccc(Cl)cc1Cl	inactive
COC(OC)C(C)c1ccccc1 (stereo not drawn)	inactive
C=CCOc1c(Br)cc(Br)cc1Br	inactive
CC(CC(=O)O)CC(C)(C)C (stereo not drawn)	inactive
CN(C)CCCNCCC#N	inactive
C1=C\CC/C=C\CC/1	inactive
CCCCC(CC)C(=O)OC(C)C (stereo not drawn)	inactive
Nc1ccc(S(=O)(=O)Nc2ccccn2)cc1	inactive
N#CCCOCCOCCC#N	inactive
c1ccccc1	inactive
Cc1cccc(Nc2ccncc2S(=O)(=O)NC(=O)NC(C)C)c1	inactive
Cn1c(=O)c2c(ncn2CC2OCCO2)n(C)c1=O	inactive
CCS(=O)(=O)CCn1c([N+](=O)[O-])cnc1C	inactive
